Target chain: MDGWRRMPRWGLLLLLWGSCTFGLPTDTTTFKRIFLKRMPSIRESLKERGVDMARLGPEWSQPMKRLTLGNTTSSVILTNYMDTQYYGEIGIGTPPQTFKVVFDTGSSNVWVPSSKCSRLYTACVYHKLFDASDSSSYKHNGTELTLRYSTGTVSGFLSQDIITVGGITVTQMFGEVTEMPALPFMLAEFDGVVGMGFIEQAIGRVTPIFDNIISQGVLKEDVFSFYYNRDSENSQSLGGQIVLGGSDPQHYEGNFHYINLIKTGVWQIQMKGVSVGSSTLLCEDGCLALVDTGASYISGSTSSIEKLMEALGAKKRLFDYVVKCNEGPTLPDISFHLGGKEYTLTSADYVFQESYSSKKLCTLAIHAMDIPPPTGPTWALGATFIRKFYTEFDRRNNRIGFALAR
Readout kind: pIC50
Quick note: pIC50 values are minus log10 of concentrations in mol/L.

* COc1ccccc1COCCCOc1ccc(N2C(=O)CNC[C@@H]2COCc2cccc(C(F)(F)F)c2)cc1 | 6.64
* COc1ccccc1COCCCOc1ccc(N2C(=O)CNC[C@@H]2COCc2cccnc2)cc1 | 6.92
* COc1ccccc1COCCCOc1ccc(N2C(=O)CNC[C@@H]2COCc2ccc(C)c(Cl)c2)cc1 | 6.59

Which pIC50 is listed for COc1ccccc1COCCCOc1ccc(N2C(=O)CNC[C@@H]2COCc2cccc(C(F)(F)F)c2F)cc1 ?
6.57

Input COc1ccccc1COCCCOc1ccc(N2C(=O)CNC[C@@H]2COCc2ccc(C(F)(F)F)cc2)cc1
5.17
